These entries and their values trace back to patent US20120132797A1.

- System: Wistar (Crl:WI(Han)) rats
- assayInfo: Mass spectrometry-based plasma metabolite profiling of rats treated with known inducers of thyroid function impairment
- Type: in vivo, rat
- conditionsUsed: male rats, mh7 (study day 7), ratio of group medians vs controls, Table 4
measure: Nervonic acid C24:(cis[15]1)

molecule: Cc1cccc(C)c1N(Cn1cccn1)C(=O)CCl [Metazachlor]
measuredTarget: Wistar (Crl:WI(Han)) rats
valueObserved: 3.17

molecule: CCC(CC)Nc1c([N+](=O)[O-])cc(C)c(C)c1[N+](=O)[O-] [Pendimethalin]
measuredTarget: Wistar (Crl:WI(Han)) rats
valueObserved: 2.90

molecule: CCC1(c2ccccc2)C(=O)NC(=O)NC1=O [Phenobarbital sodium]
measuredTarget: Wistar (Crl:WI(Han)) rats
valueObserved: 1.27

molecule: Cn1cc[nH]c1=S [Methimazole]
measuredTarget: Wistar (Crl:WI(Han)) rats
valueObserved: 2.59

###

- System: Wistar (Crl:WI(Han)) rats
- assayInfo: Mass spectrometry-based plasma metabolite profiling of rats treated with known inducers of thyroid function impairment
- Format: in vivo, rat
- conditionsUsed: male rats, mh7 (study day 7), ratio of group medians vs controls, Table 4
Consider the following compounds and their measured dihomo-gamma-Linolenic acis (C20:cis[8,11,14]3) readings.
measure: dihomo-gamma-Linolenic acis (C20:cis[8,11,14]3)

compound: CCC(CC)Nc1c([N+](=O)[O-])cc(C)c(C)c1[N+](=O)[O-]
valueObserved: 2.92

compound: Cc1cccc(C)c1N(Cn1cccn1)C(=O)CCl
valueObserved: 2.41

compound: Cn1cc[nH]c1=S
valueObserved: 2.38

compound: CCC1(c2ccccc2)C(=O)NC(=O)NC1=O [Phenobarbital sodium]
valueObserved: 1.06

###

Consider the following compounds and their measured Sphingomyelin (d18:1, C16:0) readings.
- Test system: Wistar (Crl:WI(Han)) rats
- assayInfo: Mass spectrometry-based plasma metabolite profiling of rats treated with known inducers of thyroid function impairment
- Type: in vivo, rat
- conditionsUsed: male rats, mh14 (study day 14), ratio of group medians vs controls, Table 4
measure: Sphingomyelin (d18:1, C16:0)

compound: CCC1(c2ccccc2)C(=O)NC(=O)NC1=O [Phenobarbital sodium]
measure: Sphingomyelin (d18:1, C16:0)
valueObserved: 1.55
--
compound: Cc1cccc(C)c1N(Cn1cccn1)C(=O)CCl
measure: Sphingomyelin (d18:1, C16:0)
valueObserved: 2.36
--
compound: Cn1cc[nH]c1=S
measure: Sphingomyelin (d18:1, C16:0)
valueObserved: 2.27
--
compound: CCC(CC)Nc1c([N+](=O)[O-])cc(C)c(C)c1[N+](=O)[O-]
measure: Sphingomyelin (d18:1, C16:0)
valueObserved: 1.97

###

- Test system: Wistar (Crl:WI(Han)) rats
- assayInfo: Mass spectrometry-based plasma metabolite profiling of rats treated with known inducers of thyroid function impairment
- Assay type: in vivo, rat
- conditionsUsed: male rats, mh14 (study day 14), ratio of group medians vs controls, Table 4
- Description: At the beginning of the study the animals were 10-11 weeks old. Each dose group in the studies consisted of five rats per sex, and was compared with controls (10 rats per sex). […] The dose levels were chosen to show the typical overt (high dose) and slight (low dose) toxicological symptoms of the substances as described in the literature or in BASF internal study reports. […]

molecule: CCC1(c2ccccc2)C(=O)NC(=O)NC1=O [Phenobarbital sodium]
Cytosine: 1.07

molecule: Cc1cccc(C)c1N(Cn1cccn1)C(=O)CCl [Metazachlor]
Cytosine: 0.75

molecule: Cn1cc[nH]c1=S [Methimazole]
Cytosine: 0.46

molecule: CCC(CC)Nc1c([N+](=O)[O-])cc(C)c(C)c1[N+](=O)[O-] [Pendimethalin]
Cytosine: 0.92
